EXPERIMENTAL_TARGET: glucan synthase (GS) (Candida albicans, UniProt O13428)
Construct: Extraction of GS activity from membranes was performed at a protein concentration of 5 mg/mL in extraction buffer; endogenous in cells; host or cells: Candida albicans MY1055 (membrane fraction, detergent extraction, product entrapment)
Sequence (O13428 1-1897): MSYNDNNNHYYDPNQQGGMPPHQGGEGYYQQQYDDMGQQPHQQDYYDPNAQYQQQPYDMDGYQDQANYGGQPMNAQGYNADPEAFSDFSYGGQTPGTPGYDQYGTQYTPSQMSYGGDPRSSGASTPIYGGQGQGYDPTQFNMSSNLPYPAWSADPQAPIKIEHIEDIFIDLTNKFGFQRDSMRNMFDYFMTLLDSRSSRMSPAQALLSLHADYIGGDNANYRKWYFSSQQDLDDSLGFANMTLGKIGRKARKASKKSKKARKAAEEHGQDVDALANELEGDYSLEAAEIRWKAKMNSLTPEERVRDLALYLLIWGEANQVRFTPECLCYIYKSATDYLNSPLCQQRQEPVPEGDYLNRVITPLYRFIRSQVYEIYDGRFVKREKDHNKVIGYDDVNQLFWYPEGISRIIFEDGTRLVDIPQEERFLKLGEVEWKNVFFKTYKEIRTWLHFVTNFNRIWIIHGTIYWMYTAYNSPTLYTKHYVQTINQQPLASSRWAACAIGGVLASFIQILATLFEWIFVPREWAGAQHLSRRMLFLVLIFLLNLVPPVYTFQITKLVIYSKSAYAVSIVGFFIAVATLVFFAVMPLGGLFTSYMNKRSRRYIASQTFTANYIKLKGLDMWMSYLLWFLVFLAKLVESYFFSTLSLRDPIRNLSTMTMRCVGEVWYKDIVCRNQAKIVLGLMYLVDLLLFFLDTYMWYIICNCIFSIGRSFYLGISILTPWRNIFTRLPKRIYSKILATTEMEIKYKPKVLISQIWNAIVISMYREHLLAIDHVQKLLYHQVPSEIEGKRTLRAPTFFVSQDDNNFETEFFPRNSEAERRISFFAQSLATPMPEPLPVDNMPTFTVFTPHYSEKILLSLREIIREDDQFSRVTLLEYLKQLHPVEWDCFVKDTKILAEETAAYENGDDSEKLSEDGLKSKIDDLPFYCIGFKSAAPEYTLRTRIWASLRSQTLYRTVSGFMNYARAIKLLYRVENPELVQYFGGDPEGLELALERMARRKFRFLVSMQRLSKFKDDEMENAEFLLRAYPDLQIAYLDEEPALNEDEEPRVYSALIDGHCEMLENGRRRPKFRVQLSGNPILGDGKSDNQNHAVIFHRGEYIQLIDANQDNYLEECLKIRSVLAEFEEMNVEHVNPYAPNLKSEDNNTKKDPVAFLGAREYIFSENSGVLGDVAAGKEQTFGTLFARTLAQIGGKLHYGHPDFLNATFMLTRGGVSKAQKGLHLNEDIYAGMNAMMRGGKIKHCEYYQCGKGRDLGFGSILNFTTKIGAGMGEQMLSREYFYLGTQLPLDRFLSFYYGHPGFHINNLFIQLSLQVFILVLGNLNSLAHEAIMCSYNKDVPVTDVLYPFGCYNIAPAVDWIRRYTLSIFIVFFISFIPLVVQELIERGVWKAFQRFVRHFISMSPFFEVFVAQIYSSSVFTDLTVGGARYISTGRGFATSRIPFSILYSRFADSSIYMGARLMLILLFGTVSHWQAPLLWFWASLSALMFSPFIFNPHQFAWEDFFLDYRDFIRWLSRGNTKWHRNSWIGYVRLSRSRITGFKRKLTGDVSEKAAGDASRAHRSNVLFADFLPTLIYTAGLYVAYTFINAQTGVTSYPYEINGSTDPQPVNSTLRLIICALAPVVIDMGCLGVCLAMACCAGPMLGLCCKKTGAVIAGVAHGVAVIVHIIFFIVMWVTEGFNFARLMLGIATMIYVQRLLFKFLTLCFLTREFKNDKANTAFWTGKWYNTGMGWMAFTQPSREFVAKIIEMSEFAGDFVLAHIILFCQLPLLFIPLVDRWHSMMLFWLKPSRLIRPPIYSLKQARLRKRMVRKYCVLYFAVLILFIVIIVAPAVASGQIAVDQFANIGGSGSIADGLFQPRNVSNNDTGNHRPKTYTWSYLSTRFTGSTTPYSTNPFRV
Sequence (O42825 1-195 partner limits assumed): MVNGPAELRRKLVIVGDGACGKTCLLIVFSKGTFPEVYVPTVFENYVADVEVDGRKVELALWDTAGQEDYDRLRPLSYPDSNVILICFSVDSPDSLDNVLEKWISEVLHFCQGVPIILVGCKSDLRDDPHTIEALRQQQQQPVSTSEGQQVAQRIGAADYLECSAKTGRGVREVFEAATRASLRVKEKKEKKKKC
EXPERIMENT_DESCRIPTION: Glucan synthase inhibition (polymerization assay, 96-well)
Assay type: biochemical
CONDITION_DETAILS: glucan synthase prepared from Candida albicans MY1055; 60 min incubation at 22° C.; read-out: Candida Albicans GS IC50 (ng/mL) (converted)
Protocol: The in vitro evaluation of glucan synthase inhibitory activity of compounds was measured in a polymerization assay in 96-well format. […] 40 μL/well scintillation fluid (Packard ULTIMA GOLD TM-XR) was added and the sealed plates counted in a WALLAC BETA counter in top-counting mode at an efficiency of approximately 40%. […]
ASSAY_ENDPOINT: IC50 (µM)

CN[C@@](C)(CO[C@H]1[C@H](n2nnc(N)n2)C[C@@]23COC[C@]1(C)[C@@H]2CC[C@H]1C3=CC[C@@]2(C)[C@H](C(=O)O)[C@@](C)([C@H](C)C(C)C)CC[C@]12C)C(C)C :: 0.00299
CC(=O)Nc1nnnn1[C@@H]1C[C@@]23COC[C@](C)([C@@H]2CC[C@H]2C3=CC[C@@]3(C)[C@H](C(=O)O)[C@@](C)([C@H](C)C(C)C)CC[C@]23C)[C@H]1OC[C@](C)(N)C(C)C [Example 38A] :: 0.0818
CCN[C@H](CO[C@H]1[C@H](n2nnc(N)n2)C[C@@]23COC[C@]1(C)[C@@H]2CC[C@H]1C3=CC[C@@]2(C)[C@H](C(=O)O)[C@@](C)([C@H](C)C(C)C)CC[C@]12C)C(C)(C)C :: 0.0132
CC(C)[C@@H](C)[C@@]1(C)CC[C@]2(C)[C@H]3CC[C@@H]4[C@@]5(COC[C@@]4(C)[C@@H](OCC4(N)CCSCC4)[C@H](n4nnc(N)n4)C5)C3=CC[C@@]2(C)[C@@H]1C(=O)O :: 0.00292

1. CNC(C)(CCF)CO[C@H]1[C@H](n2nnc(N)n2)C[C@@]23COC[C@]1(C)[C@@H]2CC[C@H]1C3=CC[C@@]2(C)[C@H](C(=O)O)[C@@](C)([C@H](C)C(C)C)CC[C@]12C (stereo partly drawn)
2. CC(C)[C@@H](C)[C@@]1(C)CC[C@]2(C)[C@H]3CC[C@@H]4[C@@]5(COC[C@@]4(C)[C@@H](OC[C@@](C)(N)C(C)C)[C@H](n4nnc(N)n4)C5)C3=CC[C@@]2(C)[C@@H]1C(N)=O
Problem: Please indicate which entry, 1 or 2 , has the lower recorded IC50 value. Record your answer as the label of the chosen record.
Solution: 2
(2: 0.00306 µM, 1: 0.00743 µM)

a. CCCCCC(C)(CO[C@H]1[C@H](n2nnc(N)n2)C[C@@]23COC[C@]1(C)[C@@H]2CC[C@H]1C3=CC[C@@]2(C)[C@H](C(=O)O)[C@@](C)([C@H](C)C(C)C)CC[C@]12C)NCCC (stereo partly drawn)
b. CC[C@H](C)[C@@H](CO[C@H]1[C@H](n2nnc(N)n2)C[C@@]23COC[C@]1(C)[C@@H]2CC[C@H]1C3=CC[C@@]2(C)[C@H](C(=O)O)[C@@](C)([C@H](C)C(C)C)CC[C@]12C)N(C)C
c. CCC[C@H](CO[C@H]1[C@H](n2nnc(N)n2)C[C@@]23COC[C@]1(C)[C@@H]2CC[C@H]1C3=CC[C@@]2(C)[C@H](C(=O)O)[C@@](C)([C@H](C)C(C)C)CC[C@]12C)N(C)C
Problem: Rank items: key IC50, increasing. Write the labels out in the order the request specifies.
Solution: b, c, a

a. CC(C)[C@@H](C)[C@@]1(C)CC[C@]2(C)[C@H]3CC[C@@H]4[C@@]5(COC[C@@]4(C)[C@@H](OC[C@](C)(C(C)C)N4CCCCC4)[C@H](n4nnc(N)n4)C5)C3=CC[C@@]2(C)[C@@H]1C(=O)O
b. CC(C)[C@@H](C)[C@@]1(C)CC[C@]2(C)[C@H]3CC[C@@H]4[C@@]5(COC[C@@]4(C)[C@@H](OCC(C)(N)CCO)[C@H](n4nnc(N)n4)C5)C3=CC[C@@]2(C)[C@@H]1C(=O)O (stereo partly drawn)
c. CC(C)[C@@H](C)[C@@]1(C)CC[C@]2(C)[C@H]3CC[C@@H]4[C@@]5(COC[C@@]4(C)[C@@H](OCC(C)(C)N)[C@H](n4ncnn4)C5)C3=CC[C@@]2(C)[C@@H]1C(=O)O
d. CC(C)[C@@H](C)[C@@]1(C)CC[C@]2(C)[C@H]3CC[C@@H]4[C@@]5(COC[C@@]4(C)[C@@H](OC[C@H](N)C(C)(C)C)[C@H](n4nnc(N)n4)C5)C3=CC[C@@]2(C)[C@@H]1C(=O)O
Problem: Rank items: key IC50, increasing. Write the labels out in the order the request specifies.
Solution: d, c, b, a
(d: 0.00611 µM, c: 0.00981 µM, b: 0.0167 µM, a: 0.0788 µM)
